Catalogue of molecules with associated M65V, pure enzyme, rate of cleavage
# assay_system: E. coli PNP mutant M65V (Escherichia coli, UniProt P0ABP8, M65V)
# Sequence (P0ABP8 whole entry M65V): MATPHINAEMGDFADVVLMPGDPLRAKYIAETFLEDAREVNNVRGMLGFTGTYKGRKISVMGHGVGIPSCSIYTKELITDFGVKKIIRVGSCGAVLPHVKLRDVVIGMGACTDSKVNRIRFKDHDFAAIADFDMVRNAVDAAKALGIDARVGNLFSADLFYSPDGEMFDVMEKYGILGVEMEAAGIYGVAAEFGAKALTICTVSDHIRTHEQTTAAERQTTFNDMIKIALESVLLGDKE
# condition_notes: Table III; pure enzyme; 100 μM substrate; HPLC; average of separate experiments

{"columns": ["structure_smiles_string", "assay_system", "M65V, pure enzyme, rate of cleavage"],
 "data": [
  ["OC[C@H]1O[C@@H](n2cnc3c(CF)ncnc32)[C@H](O)[C@@H]1O", "E. coli PNP mutant M65V (Escherichia coli, UniProt P0ABP8, M65V)", "211,000 nmole/mg/hr"],
  ["Cc1ncnc2c1ncn2[C@H]1C[C@H](O)[C@@H](CO)O1", "E. coli PNP mutant M65V (Escherichia coli, UniProt P0ABP8, M65V)", "593,000 nmole/mg/hr"],
  ["Cc1ncnc2c1ncn2[C@@H]1O[C@H]([C@H](C)O)[C@@H](O)[C@H]1O", "E. coli PNP mutant M65V (Escherichia coli, UniProt P0ABP8, M65V)", "76,000 nmole/mg/hr"],
  ["Nc1nc(F)nc2c1ncn2[C@@H]1O[C@H](CI)[C@@H](O)[C@H]1O", "E. coli PNP mutant M65V (Escherichia coli, UniProt P0ABP8, M65V)", "490 nmol/mg/h"]
]}

====

# assay_system: wild-type E. coli PNP (Escherichia coli)
# Sequence (P0ABP8 whole entry): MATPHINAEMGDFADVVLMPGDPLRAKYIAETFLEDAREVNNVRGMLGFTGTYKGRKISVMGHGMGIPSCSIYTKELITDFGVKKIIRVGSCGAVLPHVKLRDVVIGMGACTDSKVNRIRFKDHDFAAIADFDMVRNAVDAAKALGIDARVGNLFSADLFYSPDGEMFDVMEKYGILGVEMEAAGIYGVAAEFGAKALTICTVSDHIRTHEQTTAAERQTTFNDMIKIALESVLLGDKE
# condition_notes: Table III; 100 μM substrate; HPLC; average of separate experiments

{"columns": ["compound", "Wild type, pure enzyme, rate of cleavage"],
 "data": [
  ["Cc1ncnc2c1ncn2[C@@H]1O[C@H](CO)[C@@H](O)[C@H]1O [9-(β-D-ribofuranosyl)-6-methylpurine, 6-Methyl-9-(β-D-ribofuranosyl)purine]", "100,000 nmole/mg/hr"],
  ["Cc1ncnc2c1ncn2[C@@H]1O[C@H](CO)[C@@H](O)[C@@H]1O [9-(β-D-arabinofuranosyl)-6-methylpurine]", "14 nmol/mg/h"],
  ["C[C@H](O)[C@H]1O[C@@H](n2cnc3c(N)nc(F)nc32)[C@H](O)[C@@H]1O", "26,000 nmole/mg/hr"]
]}
